# measured on: T1, IL-36R naturally expressed on OVCAR8 cells and on normal human epidermal keratinocytes (NHK cells) (human, UniProt Q9HB29 20-575)
# T1 sequence (looked up): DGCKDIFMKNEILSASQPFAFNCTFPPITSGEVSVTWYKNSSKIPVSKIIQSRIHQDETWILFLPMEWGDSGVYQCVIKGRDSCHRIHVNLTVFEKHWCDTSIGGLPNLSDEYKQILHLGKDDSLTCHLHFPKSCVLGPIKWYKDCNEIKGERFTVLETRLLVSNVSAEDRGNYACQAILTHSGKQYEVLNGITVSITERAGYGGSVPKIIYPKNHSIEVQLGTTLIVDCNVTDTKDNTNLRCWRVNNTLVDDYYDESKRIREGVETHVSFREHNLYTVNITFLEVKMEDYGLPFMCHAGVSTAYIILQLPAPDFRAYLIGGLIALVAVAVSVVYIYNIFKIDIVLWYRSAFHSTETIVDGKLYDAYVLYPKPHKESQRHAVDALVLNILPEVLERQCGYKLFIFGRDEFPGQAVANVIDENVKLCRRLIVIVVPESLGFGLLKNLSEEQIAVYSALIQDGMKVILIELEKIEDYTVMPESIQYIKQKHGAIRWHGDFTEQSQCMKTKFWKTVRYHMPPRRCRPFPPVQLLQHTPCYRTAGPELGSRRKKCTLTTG
# method description: cell-based or functional assay
metric name: IC50 (M); hIL36γ; IL-8 production
Give just the numeric value; M need not be written.

hz84C4-2.2 (antibody, human IgG4 S228P, kappa, V domains shown, Humanized, human IgG4 / kappa) VH: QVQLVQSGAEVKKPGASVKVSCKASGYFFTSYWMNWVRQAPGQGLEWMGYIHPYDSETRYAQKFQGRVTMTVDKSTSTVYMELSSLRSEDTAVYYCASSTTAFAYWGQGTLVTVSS VL: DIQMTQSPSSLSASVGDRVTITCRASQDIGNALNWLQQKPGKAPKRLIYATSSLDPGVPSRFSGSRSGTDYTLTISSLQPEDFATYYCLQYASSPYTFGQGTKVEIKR	8.61e-12

Please look at the following binder next.
Any idea what IC50 (M); hIL36γ; IL-8 production was measured for hz84C4-2.4 (antibody, human IgG4 S228P, kappa, V domains shown, Humanized, human IgG4 / kappa) VH: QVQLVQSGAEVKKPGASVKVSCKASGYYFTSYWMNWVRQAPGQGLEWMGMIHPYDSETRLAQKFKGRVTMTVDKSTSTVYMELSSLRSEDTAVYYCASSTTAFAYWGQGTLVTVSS VL: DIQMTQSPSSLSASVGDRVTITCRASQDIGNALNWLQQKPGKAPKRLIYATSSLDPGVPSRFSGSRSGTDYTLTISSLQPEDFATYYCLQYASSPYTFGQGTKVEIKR ?
5.15e-12

All figures here come from patent US20240270857A1.
